Assign melting point to each entry below.

Recorded results for 5 molecules are shown here.
molecule="Cc1cn(-c2cc(NC(=O)c3ccc(CN4CCN(C(=O)c5cccc(F)c5)CC4)cc3)cc(C(F)(F)F)c2)cn1 [Compound 28k]" valuereported="90 to 93 °C"
molecule=CCOC(=O)CC[C@H](NC(=O)c1ccc(CNc2nccc(-c3cccnc3)n2)cc1)C(=O)OCC valuereported="130 to 132 °C"
molecule=Cc1cn(-c2cc(NCc3ccc(C(=O)Nc4cc([N+](=O)[O-])ccc4C)cc3)cc(C(F)(F)F)c2)cn1 valuereported="205 to 208 °C"
molecule=CCOC(=O)CC[C@H](NC(=O)c1ccc(CNc2ccc(Oc3ccnc(C(=O)NC)c3)cc2)cc1)C(=O)OCC valuereported="162 to 164 °C"
molecule=Cc1cn(-c2cc(NC(=O)c3ccc(CNc4cc([N+](=O)[O-])ccc4C)cc3)cc(C(F)(F)F)c2)cn1 valuereported="113 to 115 °C"

Parameters: items (list). Returns: melting point for each item.
1. O=C(Nc1cccc(C(F)(F)F)c1)c1ccc(CNc2nccc(-c3cccnc3)n2)cc1
2. COC(=O)c1ccc(N)c(NC(=O)c2ccc(CNc3cc([N+](=O)[O-])ccc3C)cc2)c1

**A:**
1. 138 to 141 °C
2. 208 to 210 °C

---

testSystem: HER-4 (Homo sapiens, UniProt Q15303)
Construct: purchased Promega
Sequence (Q15303 26-1308): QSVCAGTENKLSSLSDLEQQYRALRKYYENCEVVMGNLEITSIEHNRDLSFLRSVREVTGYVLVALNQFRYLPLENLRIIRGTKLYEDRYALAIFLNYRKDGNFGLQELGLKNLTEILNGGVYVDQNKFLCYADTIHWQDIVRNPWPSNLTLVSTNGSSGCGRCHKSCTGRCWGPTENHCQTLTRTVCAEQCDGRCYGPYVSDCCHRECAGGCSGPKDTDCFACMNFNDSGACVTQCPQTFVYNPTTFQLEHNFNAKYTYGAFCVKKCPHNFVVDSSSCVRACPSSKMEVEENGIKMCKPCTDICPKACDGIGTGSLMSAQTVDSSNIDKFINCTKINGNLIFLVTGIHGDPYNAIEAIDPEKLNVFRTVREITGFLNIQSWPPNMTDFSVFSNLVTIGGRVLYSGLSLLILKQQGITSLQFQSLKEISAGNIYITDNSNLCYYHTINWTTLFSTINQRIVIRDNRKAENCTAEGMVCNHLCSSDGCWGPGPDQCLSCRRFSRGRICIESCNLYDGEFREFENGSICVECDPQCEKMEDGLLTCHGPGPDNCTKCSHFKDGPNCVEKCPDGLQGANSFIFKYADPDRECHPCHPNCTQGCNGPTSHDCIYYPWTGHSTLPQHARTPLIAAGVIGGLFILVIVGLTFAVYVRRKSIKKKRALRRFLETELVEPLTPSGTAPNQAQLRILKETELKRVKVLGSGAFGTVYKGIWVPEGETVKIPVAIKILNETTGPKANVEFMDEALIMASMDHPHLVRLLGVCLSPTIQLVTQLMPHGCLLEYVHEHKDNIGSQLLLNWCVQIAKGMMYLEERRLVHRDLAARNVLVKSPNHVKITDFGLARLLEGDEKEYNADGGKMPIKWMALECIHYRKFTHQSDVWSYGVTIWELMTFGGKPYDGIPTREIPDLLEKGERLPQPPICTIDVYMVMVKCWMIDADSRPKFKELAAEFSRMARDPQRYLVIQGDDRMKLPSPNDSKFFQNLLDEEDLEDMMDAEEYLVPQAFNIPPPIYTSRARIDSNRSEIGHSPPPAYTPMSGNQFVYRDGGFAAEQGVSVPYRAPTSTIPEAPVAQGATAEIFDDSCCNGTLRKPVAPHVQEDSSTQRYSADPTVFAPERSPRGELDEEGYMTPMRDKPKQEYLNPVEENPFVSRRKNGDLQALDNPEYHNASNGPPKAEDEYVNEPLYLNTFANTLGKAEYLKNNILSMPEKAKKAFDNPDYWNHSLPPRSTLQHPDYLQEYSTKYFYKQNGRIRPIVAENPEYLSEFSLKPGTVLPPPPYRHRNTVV
testProtocol: ADP-Glo kinase inhibitory assay, HER-4
Assay type: biochemical
testParameters: read-out: % Inhibition at 10 nM, HER-4
attributeMeasured: inhibition at 0.01 µM
Please append the unit to your numeric answer.

compound="CCOC(=O)CC[C@H](NC(=O)c1ccc(CNc2nccc(-c3cccnc3)n2)cc1)C(=O)OCC [Compound 23]" attributemeasured="inhibition at 0.01 µM" valuereported=12%

Hi, could you look up inhibition at 0.01 µM for each item in my list?
1. Cc1cn(-c2cc(NC(=O)c3ccc(CCl)cc3)cc(C(F)(F)F)c2)cn1 [Compound 5]
2. Cc1cn(-c2cc(NC(=O)c3ccc(CN4CCN(C(=O)c5cccnc5)CC4)cc3)cc(C(F)(F)F)c2)cn1 [Compound 28l]
3. CCOC(=O)CCC(NC(=O)c1ccc(CNc2cc(-n3cnc(C)c3)cc(C(F)(F)F)c2)cc1)C(=O)OCC (centres unmarked) [Compound 14]
4. Cc1ccc(NC(=O)c2ccc(CN3CCN(C)CC3)cc2)cc1Nc1nccc(-c2cccnc2)n1 [Imatinib, reference compound]

**A:**
["0%", "51%", "0%", "42%"]

---

Provide the recorded inhibition at 0.01 µM for the entries that follow.
testSystem: PDGFRb (Homo sapiens)
Construct: purchased Promega
Sequence (P09619 33-1106): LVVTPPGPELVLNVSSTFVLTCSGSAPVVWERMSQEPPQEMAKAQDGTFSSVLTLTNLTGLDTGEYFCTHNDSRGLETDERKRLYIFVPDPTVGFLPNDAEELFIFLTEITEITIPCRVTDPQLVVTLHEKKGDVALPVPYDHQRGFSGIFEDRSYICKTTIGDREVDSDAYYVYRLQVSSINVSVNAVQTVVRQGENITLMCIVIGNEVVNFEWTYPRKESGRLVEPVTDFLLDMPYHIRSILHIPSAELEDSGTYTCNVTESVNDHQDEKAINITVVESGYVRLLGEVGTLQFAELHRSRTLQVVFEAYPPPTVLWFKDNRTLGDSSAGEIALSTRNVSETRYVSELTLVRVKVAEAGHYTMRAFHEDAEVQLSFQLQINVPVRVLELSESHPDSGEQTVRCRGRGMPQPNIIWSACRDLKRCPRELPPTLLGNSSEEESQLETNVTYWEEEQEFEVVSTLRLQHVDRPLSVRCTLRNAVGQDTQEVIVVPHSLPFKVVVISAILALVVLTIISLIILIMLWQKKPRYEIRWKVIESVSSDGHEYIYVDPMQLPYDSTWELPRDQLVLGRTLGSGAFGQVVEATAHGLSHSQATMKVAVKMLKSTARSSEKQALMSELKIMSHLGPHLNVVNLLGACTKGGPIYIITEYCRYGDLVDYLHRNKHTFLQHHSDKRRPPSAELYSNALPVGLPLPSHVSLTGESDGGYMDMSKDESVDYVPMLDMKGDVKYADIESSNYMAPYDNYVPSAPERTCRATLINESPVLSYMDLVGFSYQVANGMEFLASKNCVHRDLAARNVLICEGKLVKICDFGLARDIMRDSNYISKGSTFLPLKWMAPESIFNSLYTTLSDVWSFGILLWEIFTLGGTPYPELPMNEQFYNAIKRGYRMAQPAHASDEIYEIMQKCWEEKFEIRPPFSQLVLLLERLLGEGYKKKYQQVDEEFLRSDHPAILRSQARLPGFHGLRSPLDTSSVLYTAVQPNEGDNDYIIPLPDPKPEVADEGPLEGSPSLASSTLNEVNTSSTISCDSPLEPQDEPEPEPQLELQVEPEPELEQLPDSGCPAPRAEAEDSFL
testProtocol: ADP-Glo kinase inhibitory assay, PDGFRb
Type: biochemical
testParameters: read-out: % Inhibition at 10 nM, PDGFRb
One number for each entry, in %.

compound="Cc1cn(-c2cc(NC(=O)c3ccc(CN4CCN(C(=O)c5cccc(F)c5)CC4)cc3)cc(C(F)(F)F)c2)cn1 [Compound 28k]" valuereported=2
compound="Cc1cn(-c2cc(NC(=O)c3ccc(CN4CCN(C(=O)c5ccccc5F)CC4)cc3)cc(C(F)(F)F)c2)cn1 [Compound 28j]" valuereported=2

Turning now to a further record.
**Q:** // query inhibition at 0.01 µM value for entry Cc1cn(-c2cc(NC(=O)c3ccc(CN4CCN(C(=O)c5cccnc5)CC4)cc3)cc(C(F)(F)F)c2)cn1 [Compound 28l]
**A:** 7

Reference source for all entries: paper PMC6804006
